Below, each entry is listed with its recorded Specific signal at 500 pg/mL.
# assay_target: T1, recombinant purified FRα (ECL assay calibrator) (human, UniProt P15328 25-234)
# T1 construct: Calibrator of the ECL sandwich assays; also called FRα calibrator; FRα standard
# T1 sequence (P15328 25-234 limits assumed): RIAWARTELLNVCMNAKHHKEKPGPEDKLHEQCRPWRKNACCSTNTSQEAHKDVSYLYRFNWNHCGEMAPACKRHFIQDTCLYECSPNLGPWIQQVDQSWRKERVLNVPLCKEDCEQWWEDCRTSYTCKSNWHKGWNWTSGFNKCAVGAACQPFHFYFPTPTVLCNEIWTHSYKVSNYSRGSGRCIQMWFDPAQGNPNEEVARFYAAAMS
# assay: ECL sandwich, FRα calibrator; capture 1C6.E12.G8; binder = detection Ab
measurement_name: Specific signal at 500 pg/mL

1) Monoclonal antibody 1A8.G11.E7 (antibody, mouse IgG1, V domains shown, Murine IgG1 kappa from hybridoma; also called ATCC PTA-123100) VH: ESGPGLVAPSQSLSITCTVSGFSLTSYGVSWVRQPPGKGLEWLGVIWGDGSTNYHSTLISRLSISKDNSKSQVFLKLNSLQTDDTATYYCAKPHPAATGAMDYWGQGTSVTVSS VL: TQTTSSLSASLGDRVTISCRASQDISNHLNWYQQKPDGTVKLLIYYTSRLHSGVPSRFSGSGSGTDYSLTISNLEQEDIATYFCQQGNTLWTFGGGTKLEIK; 75
2) Monoclonal antibody 24H8.D3 (antibody, mouse IgG1, V domains shown, Biotin-conjugated when used as capture antibody in the ECL assay; also called ATCC PTA-123090) VH: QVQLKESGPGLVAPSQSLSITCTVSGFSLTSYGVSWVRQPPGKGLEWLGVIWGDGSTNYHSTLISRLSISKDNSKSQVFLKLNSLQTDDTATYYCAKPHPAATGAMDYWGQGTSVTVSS VL: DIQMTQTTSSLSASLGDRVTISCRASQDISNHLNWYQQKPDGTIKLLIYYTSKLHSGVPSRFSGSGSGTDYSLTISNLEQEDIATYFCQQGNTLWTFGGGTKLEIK; 59
3) Monoclonal antibody 1D2.D8.G10 (antibody, mouse IgG1, V domains shown, Murine IgG1 kappa from hybridoma; also called 1D2.D8.G0; ATCC PTA-123098) VH: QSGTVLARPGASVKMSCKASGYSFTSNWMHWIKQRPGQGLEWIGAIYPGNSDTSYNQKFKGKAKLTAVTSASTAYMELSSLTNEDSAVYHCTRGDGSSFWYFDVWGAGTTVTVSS VL: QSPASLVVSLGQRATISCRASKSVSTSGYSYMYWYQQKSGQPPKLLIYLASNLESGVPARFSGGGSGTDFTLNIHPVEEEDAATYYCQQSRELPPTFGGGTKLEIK; 74
4) Monoclonal antibody 6A2.G7 (antibody, mouse IgG1, V domains shown, Murine IgG1 kappa from hybridoma; also called ATCC PTA-123093) VH: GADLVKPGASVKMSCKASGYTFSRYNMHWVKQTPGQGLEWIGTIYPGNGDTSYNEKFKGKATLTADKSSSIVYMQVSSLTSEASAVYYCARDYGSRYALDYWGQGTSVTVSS VL: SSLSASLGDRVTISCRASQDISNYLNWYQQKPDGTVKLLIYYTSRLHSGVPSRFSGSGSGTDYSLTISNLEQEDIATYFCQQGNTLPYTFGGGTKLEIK; 217
